# Tested on: synoviocytes (HIG.82 rabbit)
# assayInfo: MTT proliferation/cytotoxicity assay, synoviocytes
# Assay type: cell-based
# conditionParameters: Oryctolagus cuniculus; 48 hours exposure; read-out: inhibitory concentration that gave 50% effect on proliferation (IC50), synoviocytes
pIC50: −log10 of the molar value.

structureNotation	pIC50
CC1(C)CCC2=C(O1)c1ccccc1C(=O)C2=O	5.25
CC1=CC(=O)c2ccccc2C1=O	4.82
COc1cccc2c1C(=O)c1c(O)c3c(c(O)c1C2=O)C[C@@](O)(C(=O)CO)C[C@@H]3O[C@H]1C[C@H](N)[C@H](O)[C@H](C)O1	7.00
CC1=CC(=O)c2c(O)cccc2C1=O	5.44

FYI, the data here is from patent US8883856B2.
